# System: human M2 macrophages
# Measurement Notes: Inhibition of human M2 macrophage activity, hCCL22 in culture supernatant by ELISA
# Type: cell-based
# Condition Description: hCCL22 secretion, THP-1 derived M2-like macrophages, compound present during 72 hours of differentiation
The following molecules are listed with their measured EC50 values.
Numbers only here, please. The scale is µM.

Below, 3 molecules whose answers are already recorded.
| Molecule | System Under Test | EC50, µM |
| --- | --- | --- |
| CCN(c1ccc2c(c1)OC(C)(C)C1=CCn3c(=O)n(-c4ccc(C(C)=O)cc4)c(=O)n3C12)C(C)C (stereo not shown) | human M2 macrophages | 7 |
| CC(=O)c1ccc(-n2c(=O)n3n(c2=O)C2C(=CC3)C(C)(C)Oc3cc(N4CCCC4)ccc32)cc1 (stereo not shown) | human M2 macrophages | 7.7 |
| CC(=O)c1ccc(-n2c(=O)n3n(c2=O)C2C(=CC3)C(C)(C)Oc3cc(NC(C)C)ccc32)cc1 (stereo not shown) | human M2 macrophages | 3.3 |

Please look up its EC50: CNc1ccc2c(c1)OC(C)(C)C1=CCn3c(=O)n(-c4ccc(C(C)=O)cc4)c(=O)n3C12 (stereo not shown)
6.1
